target: Coagulation factor X (Homo sapiens, UniProt P00742); experiment: In vitro inhibition of human coagulation factor Xa.
Sequence (P00742 41-179 limits assumed): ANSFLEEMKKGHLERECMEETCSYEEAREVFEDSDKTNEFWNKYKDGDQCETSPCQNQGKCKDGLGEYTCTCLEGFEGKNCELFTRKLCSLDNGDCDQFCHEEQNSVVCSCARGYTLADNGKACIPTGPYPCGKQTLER
Sequence (P00742 235-488 limits assumed): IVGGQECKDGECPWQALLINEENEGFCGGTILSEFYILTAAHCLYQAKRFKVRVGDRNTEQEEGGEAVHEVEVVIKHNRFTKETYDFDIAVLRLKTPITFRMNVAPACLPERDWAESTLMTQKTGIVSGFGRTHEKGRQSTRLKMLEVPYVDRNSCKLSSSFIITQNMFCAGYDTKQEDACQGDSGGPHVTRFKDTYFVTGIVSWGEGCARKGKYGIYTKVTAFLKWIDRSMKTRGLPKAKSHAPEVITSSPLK
pIC50: −log10 of the molar value.
Returns one of Condition met or Condition not met; Condition met when pIC50 is >= 6.

Assess whether reported pIC50 for `N=C(N)c1cccc(C(=O)N[C@@H](C(=O)Nc2ccc(-c3ccccc3S(N)(=O)=O)cc2)c2ccccc2)c1` sits at 6 or higher.
Condition met

Now try `N=C(N)c1cccc(C(=O)N[C@H](Cc2ccccc2)C(=O)Nc2ccc(-c3ccccc3S(N)(=O)=O)cc2)c1` .
Condition met

Next: `N=C(N)c1cccc(C(=O)N2Cc3ccccc3C[C@H]2C(=O)Nc2ccc(-c3ccccc3S(N)(=O)=O)cc2)c1`
Condition met

Repeat with `N=C(N)c1cccc(C(=O)N[C@@H](CCC(=O)OCc2ccccc2)C(=O)Nc2ccc(-c3ccccc3S(N)(=O)=O)cc2)c1`
Condition met

// repeat for `Nc1[nH]nc2ccc(C(=O)N[C@H](C(=O)Nc3ccc(-c4ccccc4S(N)(=O)=O)cc3)c3ccccc3)cc12` and report
Condition not met

Input `N=C(N)c1cccc(C(=O)N[C@H](C(=O)Nc2ccc(-c3ccccc3S(N)(=O)=O)cc2)C2CCCCC2)c1`
Condition met

Please give the result for `Nc1[nH]nc2ccc(C(=O)N[C@@H](C(=O)Nc3ccc(-c4ccccc4S(N)(=O)=O)cc3)c3ccccc3)cc12` too.
Condition not met

Same for `N=C(N)c1cccc(C(=O)N[C@@H](CC(=O)OC2CCCCC2)C(=O)Nc2ccc(-c3ccccc3S(N)(=O)=O)cc2)c1`
Condition met

Next compound: `N=C(N)c1cccc(C(=O)N2Cc3ccc(O)cc3C[C@H]2C(=O)Nc2ccc(-c3ccccc3S(N)(=O)=O)cc2)c1`
Condition met

Now consider `N=C(N)c1cccc(C(=O)N2Cc3ccc(O)cc3C[C@@H]2C(=O)Nc2ccc(-c3ccccc3S(N)(=O)=O)cc2)c1` .
Condition not met

Would you kindly repeat that for `N=C(N)c1cccc(C(=O)N2CCC[C@H]2C(=O)Nc2ccc(-c3ccccc3S(N)(=O)=O)cc2)c1` ?
Condition not met

----------
biological target: Tissue-type plasminogen activator (Homo sapiens)
Sequence (P00750 whole entry): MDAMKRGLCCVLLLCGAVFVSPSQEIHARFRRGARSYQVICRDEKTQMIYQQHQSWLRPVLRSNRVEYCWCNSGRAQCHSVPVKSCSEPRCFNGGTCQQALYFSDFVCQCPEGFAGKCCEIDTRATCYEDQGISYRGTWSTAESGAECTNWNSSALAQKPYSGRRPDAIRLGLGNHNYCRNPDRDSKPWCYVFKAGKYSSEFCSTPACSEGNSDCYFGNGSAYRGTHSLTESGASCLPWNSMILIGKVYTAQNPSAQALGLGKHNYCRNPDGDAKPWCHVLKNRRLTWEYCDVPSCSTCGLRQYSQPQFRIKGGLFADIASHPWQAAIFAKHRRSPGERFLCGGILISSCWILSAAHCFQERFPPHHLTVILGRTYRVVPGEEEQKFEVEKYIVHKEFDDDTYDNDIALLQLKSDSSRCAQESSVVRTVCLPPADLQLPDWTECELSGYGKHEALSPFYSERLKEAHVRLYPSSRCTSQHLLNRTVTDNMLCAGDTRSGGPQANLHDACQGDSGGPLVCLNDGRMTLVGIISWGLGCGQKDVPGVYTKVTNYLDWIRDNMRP
reported-property: pIC50
Schema: pIC50 number; meaning minus log10 of the concentration expressed in molar units.

Looking for the measured pIC50 of `N=C(N)c1cccc(C(=O)N2Cc3ccccc3C[C@H]2C(=O)Nc2ccc(-c3ccccc3S(N)(=O)=O)cc2)c1` , can you help?
3.74

----------
target: Plasminogen (Homo sapiens)
Sequence (P00747 97-580 limits assumed): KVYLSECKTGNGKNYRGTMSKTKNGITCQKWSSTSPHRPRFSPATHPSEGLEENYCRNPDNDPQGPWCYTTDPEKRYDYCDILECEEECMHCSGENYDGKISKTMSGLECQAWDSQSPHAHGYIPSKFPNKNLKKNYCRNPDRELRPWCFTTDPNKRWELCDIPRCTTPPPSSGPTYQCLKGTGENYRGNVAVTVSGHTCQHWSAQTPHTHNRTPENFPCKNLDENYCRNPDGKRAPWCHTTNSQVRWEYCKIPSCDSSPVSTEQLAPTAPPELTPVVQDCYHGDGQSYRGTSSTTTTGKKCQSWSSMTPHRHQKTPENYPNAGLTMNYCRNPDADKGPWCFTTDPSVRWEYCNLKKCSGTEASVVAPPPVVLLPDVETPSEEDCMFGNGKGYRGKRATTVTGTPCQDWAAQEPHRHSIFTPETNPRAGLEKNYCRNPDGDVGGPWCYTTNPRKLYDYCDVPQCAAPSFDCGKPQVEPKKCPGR
Sequence (P00747 581-810 limits assumed): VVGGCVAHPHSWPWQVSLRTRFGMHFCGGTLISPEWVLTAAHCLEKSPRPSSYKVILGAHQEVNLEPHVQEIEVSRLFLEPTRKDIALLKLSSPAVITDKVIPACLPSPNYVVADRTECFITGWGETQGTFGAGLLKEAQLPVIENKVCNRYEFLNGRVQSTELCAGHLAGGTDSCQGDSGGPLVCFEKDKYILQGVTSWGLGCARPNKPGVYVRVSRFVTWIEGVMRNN
reported-property: IC50 (µM)
Answer in µM, number only, no unit symbol.

Name the reported IC50 value associated with the compound `N=C(N)c1cccc(C(=O)N[C@@H](C(=O)Nc2ccc(-c3ccccc3S(N)(=O)=O)cc2)c2ccccc2)c1`
18.1

Next entry: `N=C(N)c1cccc(C(=O)N2Cc3ccccc3C[C@H]2C(=O)Nc2ccc(-c3ccccc3S(N)(=O)=O)cc2)c1`
77.9

----------
Please respond with reported IC50 for every item in the list.
target: Coagulation factor X (Homo sapiens, UniProt P00742); assay: In vitro inhibition of human coagulation factor Xa.
The reply should be a number in nM, with the unit left off.

I'd like to know its IC50. The compound in question is `N=C(N)c1cccc(C(=O)N[C@H](C(=O)Nc2ccc(-c3ccccc3S(N)(=O)=O)cc2)c2ccccc2)c1`
337

And `CC(C)[C@@H](NC(=O)c1cccc(C(=N)N)c1)C(=O)Nc1ccc(-c2ccccc2S(N)(=O)=O)cc1` ?
34.8

Okay, and `N=C(N)c1cccc(C(=O)N2Cc3ccccc3C[C@@H]2C(=O)Nc2ccc(-c3ccccc3S(N)(=O)=O)cc2)c1` ?
18.7

----------
biological target: Coagulation factor X (Homo sapiens); assay: Inhibitory activity against Coagulation factor X was determined
reported-property: pIC50
The read-out pIC50 is expressed as -log10 of concentration in moles per litre.

Tell me the measured pIC50 of `Nc1nccc2ccc(C(=O)N3Cc4ccccc4C[C@H]3C(=O)Nc3ccc(-c4ccccc4S(N)(=O)=O)cc3)cc12` , please.
5.56

----------
Consider the following pIC50 values measured on UniProt P07477.
Sequence (P07477 whole entry): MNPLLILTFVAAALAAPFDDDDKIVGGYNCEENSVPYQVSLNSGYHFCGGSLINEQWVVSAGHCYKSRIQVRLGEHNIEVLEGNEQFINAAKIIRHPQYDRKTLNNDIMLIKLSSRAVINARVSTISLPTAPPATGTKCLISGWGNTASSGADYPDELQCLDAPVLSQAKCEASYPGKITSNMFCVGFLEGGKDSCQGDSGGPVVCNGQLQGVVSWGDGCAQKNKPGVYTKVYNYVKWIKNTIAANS
As a rule, pIC50 stands for the negative log10 of the concentration, concentration in M.

Query (molecule): `N=C(N)c1cccc(C(=O)N[C@@H](CC(=O)OC2CCCCC2)C(=O)Nc2ccc(-c3ccccc3S(N)(=O)=O)cc2)c1` ; field requested: pIC50
5.32

Consider next the molecule `N=C(N)c1cccc(C(=O)N[C@H](C(=O)Nc2ccc(-c3ccccc3S(N)(=O)=O)cc2)c2ccccc2)c1` in the same way.
5.29

What do we get for `N=C(N)c1cccc(C(=O)N2Cc3ccccc3C[C@H]2C(=O)Nc2ccc(-c3ccccc3S(N)(=O)=O)cc2)c1` ?
5.67

And `N=C(N)c1cccc(C(=O)N2Cc3ccc(O)cc3C[C@H]2C(=O)Nc2ccc(-c3ccccc3S(N)(=O)=O)cc2)c1` ?
6.05

----------
target: Vitamin K-dependent protein C (Homo sapiens); experiment: Inhibitory activity against activated protein C (APC)
Sequence (P04070 43-197 limits assumed): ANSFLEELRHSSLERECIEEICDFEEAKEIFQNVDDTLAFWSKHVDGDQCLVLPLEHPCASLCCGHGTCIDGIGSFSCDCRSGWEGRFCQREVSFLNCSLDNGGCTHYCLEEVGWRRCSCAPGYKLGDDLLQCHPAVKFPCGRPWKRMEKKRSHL
Sequence (P04070 212-461 limits assumed): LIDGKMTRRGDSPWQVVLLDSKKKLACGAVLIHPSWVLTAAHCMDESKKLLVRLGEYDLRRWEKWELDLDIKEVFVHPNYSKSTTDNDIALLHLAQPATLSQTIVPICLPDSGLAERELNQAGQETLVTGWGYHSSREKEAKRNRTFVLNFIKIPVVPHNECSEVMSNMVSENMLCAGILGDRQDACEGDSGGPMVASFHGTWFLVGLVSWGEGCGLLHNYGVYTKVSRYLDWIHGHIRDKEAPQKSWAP
reported-property: pIC50
The quantity pIC50 is defined as the negative base-10 logarithm of the molar concentration.

I have this molecule here, `N=C(N)c1cccc(C(=O)N2Cc3ccccc3C[C@H]2C(=O)Nc2ccc(-c3ccccc3S(N)(=O)=O)cc2)c1` , and I need its recorded pIC50.
4.14

Next: `N=C(N)c1cccc(C(=O)N[C@@H](C(=O)Nc2ccc(-c3ccccc3S(N)(=O)=O)cc2)c2ccccc2)c1`
5.18

----------
biological target: UniProt P00742; experiment: In vitro inhibition of human coagulation factor Xa.
reported-property: IC50 (nM)
State just the number; it will be interpreted in nM.

Please look up its IC50: `N=C(N)c1cccc(C(=O)N[C@@H](CCC(=O)O)C(=O)Nc2ccc(-c3ccccc3S(N)(=O)=O)cc2)c1`
1440

Query `N=C(N)c1cccc(C(=O)NCC(=O)Nc2ccc(-c3ccccc3S(N)(=O)=O)cc2)c1` next
851

Subsequent entry: `N=C(N)c1cccc(C(=O)N[C@@H](CCC(=O)OC2CCCCC2)C(=O)Nc2ccc(-c3ccccc3S(N)(=O)=O)cc2)c1`
842

// query: `CC(C)[C@H](NC(=O)c1cccc(C(=N)N)c1)C(=O)Nc1ccc(-c2ccccc2S(N)(=O)=O)cc1`
676

Would you kindly repeat that for `N=C(N)c1cccc(C(=O)N[C@@H](Cc2ccccc2)C(=O)Nc2ccc(-c3ccccc3S(N)(=O)=O)cc2)c1` ?
762
